Reference source: paper PMC10786891

Target: T1, EsCas13d, nuclease-dead (Eubacterium siraeum, UniProt B0MS50, R295A;H300A;R849A;H854A)
T1 sequence: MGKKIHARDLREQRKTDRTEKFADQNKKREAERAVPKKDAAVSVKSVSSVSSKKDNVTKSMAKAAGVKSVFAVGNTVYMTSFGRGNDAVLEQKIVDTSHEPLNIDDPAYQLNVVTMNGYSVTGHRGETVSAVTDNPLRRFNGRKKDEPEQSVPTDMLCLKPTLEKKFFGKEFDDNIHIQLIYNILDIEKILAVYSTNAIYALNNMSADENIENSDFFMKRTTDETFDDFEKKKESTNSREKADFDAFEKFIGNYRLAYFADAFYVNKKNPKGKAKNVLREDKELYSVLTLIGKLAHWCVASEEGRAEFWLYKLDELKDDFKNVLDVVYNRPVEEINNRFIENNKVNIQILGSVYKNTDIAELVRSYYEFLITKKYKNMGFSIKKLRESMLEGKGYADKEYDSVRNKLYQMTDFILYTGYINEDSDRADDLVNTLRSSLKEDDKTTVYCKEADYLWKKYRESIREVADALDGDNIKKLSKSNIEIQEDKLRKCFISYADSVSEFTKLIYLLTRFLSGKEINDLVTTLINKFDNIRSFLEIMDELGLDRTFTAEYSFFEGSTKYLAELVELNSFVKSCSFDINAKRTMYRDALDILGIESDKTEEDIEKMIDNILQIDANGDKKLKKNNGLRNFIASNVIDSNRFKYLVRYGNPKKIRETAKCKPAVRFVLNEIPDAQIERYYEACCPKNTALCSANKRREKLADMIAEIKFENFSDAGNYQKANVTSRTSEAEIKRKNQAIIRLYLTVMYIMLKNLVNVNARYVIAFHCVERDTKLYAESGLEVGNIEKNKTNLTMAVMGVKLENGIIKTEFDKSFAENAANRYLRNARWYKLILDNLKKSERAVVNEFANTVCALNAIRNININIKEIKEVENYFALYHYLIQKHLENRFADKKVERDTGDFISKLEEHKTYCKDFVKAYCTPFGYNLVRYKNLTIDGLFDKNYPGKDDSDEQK
Assay: crRNA (strand 1, pre-loaded); Mg2+; 40 mM Tris-HCl pH 7.5, 150 mM NaCl, 6 mM MgCl2, 1 mM DTT, 0.1% Tween-20, 0.2 mg/ml BSA; 25 C; 10 min per concentration, then washed
Conditions: tags: His6-TwinStrep-SUMO cleaved; N-terminal SNAP kept (SNAP-Surface 488); label: 3' end held by stalled T7 RNA polymerase
Reported values of pKd for individual entries
Would you please state pKd, meaning minus log10 of the concentration in mol/L, as a bare number?

target 1 insC 3' of 8,insC 3' of 5 (mixed) RNA 1: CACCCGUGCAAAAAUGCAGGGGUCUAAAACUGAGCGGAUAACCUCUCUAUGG RNA 2: GGGAAUGGAUCCACAUCUACGAAUUCGUACCAUAGAGAGGUUAUCCCGCCUCACCGAGAUCGGAAGAGCACACGU : 7.84

Turning now to a further record.
Exercise: Which measured pKd value corresponds to target 2 MT 5'PFS AUA 3'PFS AUG (mixed) RNA 1: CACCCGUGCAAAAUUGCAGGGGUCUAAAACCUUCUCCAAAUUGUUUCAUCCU RNA 2: GGGAAUGGAUCCACAUCUACGAAUUCAUAAGGAUGAAACAAUUUGGAGAAGAUGAGAUCGGAAGAGCACACGU ?
Key: 8.25
